The origin of these recorded values is the supplement of paper PMC8728848.

Biological target: Fuc(a1-2)Gal(b1-4)GlcNAc(b1-3)GalNAc
Assay: glycan array binding signal (z-score within array); higher = stronger binding
Settings: glycan notation: IUPAC condensed, linker removed
About 410 targets per protein were measured; listed, in parts, are those with the strongest signals and a random draw of the rest.
Reported glycan array binding signal (z-score) is given for each of the following binders.
READOUT_LABEL: glycan array binding signal (z-score)

BINDER | READOUT_LABEL | MEASURED
Als3-2 (Candida albicans) (protein) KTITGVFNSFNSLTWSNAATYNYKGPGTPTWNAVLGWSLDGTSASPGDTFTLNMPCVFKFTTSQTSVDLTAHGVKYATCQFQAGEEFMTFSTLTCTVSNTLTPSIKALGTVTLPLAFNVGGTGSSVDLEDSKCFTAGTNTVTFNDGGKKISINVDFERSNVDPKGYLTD | glycan array binding signal (z-score) | 9.17
RS2L (Ralstonia solanacearum), B5RXL5_RALSO (protein) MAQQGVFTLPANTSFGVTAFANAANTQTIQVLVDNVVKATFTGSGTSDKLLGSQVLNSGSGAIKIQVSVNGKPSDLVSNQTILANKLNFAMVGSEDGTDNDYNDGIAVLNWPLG | glycan array binding signal (z-score) | -0.205
HA-61200 (Pseudomonas aeruginosa), Q02SP8_PSEAB (protein) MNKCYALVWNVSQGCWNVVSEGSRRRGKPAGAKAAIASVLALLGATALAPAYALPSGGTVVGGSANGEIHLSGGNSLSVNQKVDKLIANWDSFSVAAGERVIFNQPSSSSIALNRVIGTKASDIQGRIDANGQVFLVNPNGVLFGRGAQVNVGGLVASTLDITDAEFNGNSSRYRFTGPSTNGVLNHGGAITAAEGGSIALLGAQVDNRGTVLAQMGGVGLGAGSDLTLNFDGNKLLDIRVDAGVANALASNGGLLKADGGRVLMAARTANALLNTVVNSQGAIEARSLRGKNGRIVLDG | glycan array binding signal (z-score) | -0.278
